- experimental_system: Solute carrier family 2, facilitated glucose transporter member 1 (Homo sapiens) (UniProt P11166)
- Sequence (P11166 whole entry): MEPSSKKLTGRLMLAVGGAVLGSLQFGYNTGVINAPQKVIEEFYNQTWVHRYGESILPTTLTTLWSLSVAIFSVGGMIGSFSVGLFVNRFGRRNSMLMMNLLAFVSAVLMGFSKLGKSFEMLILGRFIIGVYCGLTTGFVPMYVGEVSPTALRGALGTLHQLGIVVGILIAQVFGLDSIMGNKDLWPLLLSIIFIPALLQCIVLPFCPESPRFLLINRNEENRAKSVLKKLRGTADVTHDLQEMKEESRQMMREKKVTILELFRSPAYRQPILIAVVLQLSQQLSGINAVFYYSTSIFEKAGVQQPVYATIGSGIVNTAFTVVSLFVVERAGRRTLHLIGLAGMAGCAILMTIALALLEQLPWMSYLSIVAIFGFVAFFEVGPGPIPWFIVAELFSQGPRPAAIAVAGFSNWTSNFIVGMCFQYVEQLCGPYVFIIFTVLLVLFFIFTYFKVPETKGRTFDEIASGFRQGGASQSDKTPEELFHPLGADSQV
- procedure_summary: ST_JUDE_LEISH: Cytotoxicity at 2uM final concentration against transgenic Leishmania Mexicana promastigotes LmGLUT1 that are glucose transport deficient and complemented with the human glucose transporter GLUT1. Activity is measured by DNA content using SYBR green in vitro
- Format: functional
parameter: inhibition (%)

compound: Cc1cccc2nc(-c3cccc(-c4ccc(NC(=O)c5cccnc5)cc4)c3)[nH]c12
parameter: inhibition
unit_label: %
measured_result: 3.18
--
compound: CC1(C)N=C(N)N=C(N)C1c1ccc(Cl)c(Cl)c1 (centres undefined)
parameter: inhibition
unit_label: %
measured_result: 0.69
--
compound: Cn1nc(C(F)(F)F)cc1-c1ccc(C(=O)Nc2ccc3c(c2)CNCC3(C)C)s1
parameter: inhibition
unit_label: %
measured_result: 4.85
--
compound: CN(C)CCN1CCN(CCCN2c3ccccc3Sc3ccc(C(F)(F)F)cc32)CC1
parameter: inhibition
unit_label: %
measured_result: 3.37
--
compound: O=C(Nc1cccc(-c2ccc(-c3nc4ccccc4[nH]3)s2)c1)c1ccncc1
parameter: inhibition
unit_label: %
measured_result: 1.95
--
compound: O=C(C=Cc1ccc(Cl)c(Cl)c1)NCCCCCN1CCC(CCNS(=O)(=O)c2ccc(Br)cc2)CC1
parameter: inhibition
unit_label: %
measured_result: 2.45
--
compound: O=c1cc(N2CCNCC2)c(Cl)nn1Cc1ccc(NS(=O)(=O)c2ccc(Oc3ccccc3)cc2)cc1
parameter: inhibition
unit_label: %
measured_result: 1.25
--
compound: COc1ccc2c(c1)CC(CNC[C@H](O)c1cccc(Cl)c1)CC2 (some centres undefined)
parameter: inhibition
unit_label: %
measured_result: -1.38
--
compound: O=C(/C=C/c1ccc(Cl)c(Cl)c1)NCCCCCN1CCC(NC(=O)Nc2cccc(C(F)(F)F)c2)CC1
parameter: inhibition
unit_label: %
measured_result: -1.91

====

- experimental_system: Solute carrier family 2, facilitated glucose transporter member 1 (Homo sapiens)
- procedure_summary: ST_JUDE_LEISH: Cytotoxicity at 2uM final concentration against transgenic Leishmania Mexicana promastigotes LmGLUT1 that are glucose transport deficient and complemented with the human glucose transporter GLUT1. Activity is measured by DNA content using SYBR green in vitro
- Type: functional

compound: OC(CNCc1ccccc1OCc1ccccc1)c1cccc(C(F)(F)F)c1 (stereo not given)
inhibition / %: 15.1
--
compound: O=C(NCCN1CCCC1)c1ccc(-c2cccc(-c3nc4cc(F)ccc4[nH]3)c2)cc1
inhibition / %: -0.16
--
compound: O=C(NCCc1ccc(O)cc1)n1c2ccccc2c2ccccc21
inhibition / %: 2.7
--
compound: Cc1cccc2nc(-c3cccc(-c4ccc(CNCc5cnn(-c6ccccc6)n5)cc4)c3)[nH]c12
inhibition / %: 0.18
--
compound: Cc1cc(NC(=O)c2cc(Br)ccc2Cl)n(-c2nc(C)c(C)c(=O)[nH]2)n1
inhibition / %: -1.92
--
compound: O=S(=O)(c1ccc(NC(S)=NN=Cc2ccccn2)cc1)N1CCCCC1
inhibition / %: 3.4
--
compound: CCC(=O)NC(c1ccco1)c1cc(Cl)c2cccnc2c1O (stereo not given)
inhibition / %: 12.9
--
compound: O=C(Nc1ccc2c(c1)CCC2)c1cccc(CN2CCCN(Cc3cccc(O)c3)CC2)c1
inhibition / %: 1.77
--
compound: c1cncc(-c2cc(N3CCc4ccccc4C3)nc(-c3ccncc3)n2)c1
inhibition / %: 8.78
--
compound: O=C(CCNc1ccnc(NCCc2ccccc2)n1)Nc1ccccc1
inhibition / %: -0.28
